target: FGFR1 (Homo sapiens, UniProt P11362); assay: Mobility shift assay, FGFR1 kinase inhibition
Sequence (P11362 22-822): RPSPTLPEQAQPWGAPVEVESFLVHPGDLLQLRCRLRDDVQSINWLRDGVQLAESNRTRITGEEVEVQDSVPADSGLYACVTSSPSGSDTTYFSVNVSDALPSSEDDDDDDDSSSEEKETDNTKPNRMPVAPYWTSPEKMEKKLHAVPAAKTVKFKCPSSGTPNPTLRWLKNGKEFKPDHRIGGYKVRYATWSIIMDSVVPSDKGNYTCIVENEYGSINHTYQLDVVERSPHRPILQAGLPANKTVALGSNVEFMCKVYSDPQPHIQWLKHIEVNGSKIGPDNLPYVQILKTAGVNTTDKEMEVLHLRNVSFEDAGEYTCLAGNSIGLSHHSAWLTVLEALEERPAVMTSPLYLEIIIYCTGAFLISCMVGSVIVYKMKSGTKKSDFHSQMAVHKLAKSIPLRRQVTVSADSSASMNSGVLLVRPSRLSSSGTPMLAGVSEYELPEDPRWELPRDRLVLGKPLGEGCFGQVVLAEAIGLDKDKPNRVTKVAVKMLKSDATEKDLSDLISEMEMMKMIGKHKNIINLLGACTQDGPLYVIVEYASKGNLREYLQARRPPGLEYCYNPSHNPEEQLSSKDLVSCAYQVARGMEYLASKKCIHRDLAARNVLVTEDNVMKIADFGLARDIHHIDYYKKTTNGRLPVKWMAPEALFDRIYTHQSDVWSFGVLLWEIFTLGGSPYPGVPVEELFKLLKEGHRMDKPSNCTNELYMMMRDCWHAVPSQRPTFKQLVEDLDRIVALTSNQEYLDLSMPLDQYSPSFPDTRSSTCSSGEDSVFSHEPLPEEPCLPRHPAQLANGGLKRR
experimental-endpoint: IC50

IC50 of C=CC(=O)Nc1cccc(C)c1Nc1cc2c(cn1)cc(-c1cc(OC)cc(OC)c1)c(=O)n2CCCN1CCOCC1 [Compound 26] , assay on FGFR1 (Homo sapiens, UniProt P11362), is > 5 µM

----------
target: FGFR4 (Homo sapiens, UniProt P22455)
Sequence (P22455 22-802): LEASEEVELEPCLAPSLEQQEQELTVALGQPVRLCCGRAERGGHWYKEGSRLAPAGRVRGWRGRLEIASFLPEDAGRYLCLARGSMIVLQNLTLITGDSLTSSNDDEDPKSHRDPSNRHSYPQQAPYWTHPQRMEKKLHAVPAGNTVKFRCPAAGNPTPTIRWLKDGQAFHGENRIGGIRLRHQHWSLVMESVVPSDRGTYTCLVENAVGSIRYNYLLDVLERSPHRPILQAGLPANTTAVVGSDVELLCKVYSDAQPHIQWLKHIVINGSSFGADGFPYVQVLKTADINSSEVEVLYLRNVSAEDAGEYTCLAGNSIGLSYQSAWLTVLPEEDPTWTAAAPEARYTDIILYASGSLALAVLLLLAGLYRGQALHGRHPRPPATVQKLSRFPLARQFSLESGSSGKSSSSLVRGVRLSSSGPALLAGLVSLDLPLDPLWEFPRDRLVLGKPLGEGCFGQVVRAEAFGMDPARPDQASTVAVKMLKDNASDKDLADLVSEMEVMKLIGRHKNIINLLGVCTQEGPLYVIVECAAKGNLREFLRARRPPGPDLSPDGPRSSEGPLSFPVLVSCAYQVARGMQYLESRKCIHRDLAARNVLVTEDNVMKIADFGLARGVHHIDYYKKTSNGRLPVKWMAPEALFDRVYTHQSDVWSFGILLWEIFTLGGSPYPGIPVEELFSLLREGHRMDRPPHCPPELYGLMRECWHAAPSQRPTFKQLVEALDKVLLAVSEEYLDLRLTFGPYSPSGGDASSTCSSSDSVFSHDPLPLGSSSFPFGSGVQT
experimental-endpoint: pIC50
Recall that pIC50 is obtained by taking minus log10 of the concentration measured in molar.

pIC50 reported for this compound C=CC(=O)Nc1cccc(C)c1Nc1cc2c(cn1)cc(-c1c(Cl)c(OC)cc(OC)c1Cl)c(=O)n2CCCN1CCCCC1 [Compound 23] : 8.43
